Data origin: ChEMBL document CHEMBL5661980

- Protocol: AUC last in CD-1 mouse measured at 25 mg/kg, po for 1 to 24 hrs by HPLC-MS/MS analysis
- Format: ADME, organism-based
- Study conditions: in vivo, time 1-24 hrs

| Molecule | AUC(0-t) [ng·h/mL] |
| --- | --- |
| C[C@]1(O)C[C@@H](c2nc(-c3ccc4ccc(-c5ccccc5)nc4c3)c3c(N)nccn32)C1 [LINSITINIB] | 26700 |

----------
- Protocol: AUC last in CD-1 mouse measured at 75 mg/kg, po for 1 to 24 hrs by HPLC-MS/MS analysis
- Type: ADME, organism-based
- Study conditions: in vivo, time 1-24 hrs
Measured endpoint: AUC(0-t)

| Molecule | Result |
| --- | --- |
| C[C@]1(O)C[C@@H](c2nc(-c3ccc4ccc(-c5ccccc5)nc4c3)c3c(N)nccn32)C1 [LINSITINIB] | 87500 ng·h/mL |

----------
- Protocol: Plasma concentration in CD-1 mouse at 25 mg/kg, po measured after 24 hrs by HPLC-MS/MS analysis
- Type: ADME, organism-based

| Smiles representation | concentration at 24 h |
| --- | --- |
| CN1CCN([C@H]2C[C@@H](c3nc(-c4ccc5ccc(-c6ccccc6)nc5c4)c4c(N)nccn43)C2)CC1 | 1040 nM |

----------
- Protocol: Cmax in CD-1 mouse measured at 75 mg/kg, po for 1 to 24 hrs by HPLC-MS/MS analysis
- Assay type: ADME, organism-based
- Study conditions: in vivo, time 1-24 hrs
Measured endpoint: Cmax

| Compound | Measured endpoint | Result |
| --- | --- | --- |
| C[C@]1(O)C[C@@H](c2nc(-c3ccc4ccc(-c5ccccc5)nc4c3)c3c(N)nccn32)C1 [LINSITINIB] | Cmax | 16.8 µM |

----------
- Protocol: Cmax in Beagle dog measured at 5 mg/kg, po for 1 to 24 hrs by HPLC-MS/MS analysis
- Type: ADME, organism-based, Canis lupus familiaris
- Study conditions: in vivo, time 1-24 hrs

| Smiles representation | Cmax [nM] |
| --- | --- |
| C[C@]1(O)C[C@@H](c2nc(-c3ccc4ccc(-c5ccccc5)nc4c3)c3c(N)nccn32)C1 | 1200 |

----------
- Protocol: Elimination half life in Sprague-Dawley rat at 5 mg/kg, iv measured after 1 to 24 hrs by HPLC-MS/MS analysis
- Assay type: ADME, organism-based
- Study conditions: in vivo, time 1-24 hrs, read-out: beta t1/2 (converted)

| Smiles representation | Units | half-life |
| --- | --- | --- |
| CN1CCN([C@H]2C[C@@H](c3nc(-c4ccc5ccc(-c6ccccc6)nc5c4)c4c(N)nccn43)C2)CC1 | h | 20 |

----------
- Protocol: Cmax in Sprague-Dawley rat measured at 12.5 mg/kg, po for 1 to 24 hrs by HPLC-MS/MS analysis
- Format: ADME, organism-based
- Study conditions: in vivo, time 1-24 hrs
Measured endpoint: Cmax (µM)

| Smiles representation | Numeric value |
| --- | --- |
| C[C@]1(O)C[C@@H](c2nc(-c3ccc4ccc(-c5ccccc5)nc4c3)c3c(N)nccn32)C1 | 10 |

----------
- Protocol: Oral bioavailability in CD-1 mouse administered at 50 mg/kg measured after 1 to 24 hrs by HPLC-MS/MS analysis
- Type: ADME, organism-based
- Study conditions: in vivo, time 1-24 hrs
Measured endpoint: bioavailability (%)

| Smiles representation | Measured endpoint | Numeric value |
| --- | --- | --- |
| Nc1nccn2c1c(-c1ccc3ccc(-c4ccccc4)nc3c1)nc2[C@H]1CC[C@H](C(N)=O)CC1 | bioavailability | 77 |
| Nc1nccn2c(C3CCC3)nc(-c3ccc4ccc(-c5ccccc5)nc4c3)c12 | bioavailability | 56 |
